target: F508delCFTR (Homo sapiens, UniProt P13569, DEL508-508); construct: expressed in transfected cells; host or cells: CFBE41o- human lung-derived epithelial cells (CFBE4lo-F508delCFTR-HRP), doxycycline-inducible; experiment: Cell Surface Expression-Horse Radish Peroxidase (CSE-HRP) Assay; type: cell-based; settings: CSE-HRP; with co-corrector (2 μM); maximum at any tested concentration, normalized to on-plate positive control;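 also: co-corrector and positive control are both the same reference corrector at 2 µM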
Sequence (P13569 with tags, fused parts or gaps DEL508-508): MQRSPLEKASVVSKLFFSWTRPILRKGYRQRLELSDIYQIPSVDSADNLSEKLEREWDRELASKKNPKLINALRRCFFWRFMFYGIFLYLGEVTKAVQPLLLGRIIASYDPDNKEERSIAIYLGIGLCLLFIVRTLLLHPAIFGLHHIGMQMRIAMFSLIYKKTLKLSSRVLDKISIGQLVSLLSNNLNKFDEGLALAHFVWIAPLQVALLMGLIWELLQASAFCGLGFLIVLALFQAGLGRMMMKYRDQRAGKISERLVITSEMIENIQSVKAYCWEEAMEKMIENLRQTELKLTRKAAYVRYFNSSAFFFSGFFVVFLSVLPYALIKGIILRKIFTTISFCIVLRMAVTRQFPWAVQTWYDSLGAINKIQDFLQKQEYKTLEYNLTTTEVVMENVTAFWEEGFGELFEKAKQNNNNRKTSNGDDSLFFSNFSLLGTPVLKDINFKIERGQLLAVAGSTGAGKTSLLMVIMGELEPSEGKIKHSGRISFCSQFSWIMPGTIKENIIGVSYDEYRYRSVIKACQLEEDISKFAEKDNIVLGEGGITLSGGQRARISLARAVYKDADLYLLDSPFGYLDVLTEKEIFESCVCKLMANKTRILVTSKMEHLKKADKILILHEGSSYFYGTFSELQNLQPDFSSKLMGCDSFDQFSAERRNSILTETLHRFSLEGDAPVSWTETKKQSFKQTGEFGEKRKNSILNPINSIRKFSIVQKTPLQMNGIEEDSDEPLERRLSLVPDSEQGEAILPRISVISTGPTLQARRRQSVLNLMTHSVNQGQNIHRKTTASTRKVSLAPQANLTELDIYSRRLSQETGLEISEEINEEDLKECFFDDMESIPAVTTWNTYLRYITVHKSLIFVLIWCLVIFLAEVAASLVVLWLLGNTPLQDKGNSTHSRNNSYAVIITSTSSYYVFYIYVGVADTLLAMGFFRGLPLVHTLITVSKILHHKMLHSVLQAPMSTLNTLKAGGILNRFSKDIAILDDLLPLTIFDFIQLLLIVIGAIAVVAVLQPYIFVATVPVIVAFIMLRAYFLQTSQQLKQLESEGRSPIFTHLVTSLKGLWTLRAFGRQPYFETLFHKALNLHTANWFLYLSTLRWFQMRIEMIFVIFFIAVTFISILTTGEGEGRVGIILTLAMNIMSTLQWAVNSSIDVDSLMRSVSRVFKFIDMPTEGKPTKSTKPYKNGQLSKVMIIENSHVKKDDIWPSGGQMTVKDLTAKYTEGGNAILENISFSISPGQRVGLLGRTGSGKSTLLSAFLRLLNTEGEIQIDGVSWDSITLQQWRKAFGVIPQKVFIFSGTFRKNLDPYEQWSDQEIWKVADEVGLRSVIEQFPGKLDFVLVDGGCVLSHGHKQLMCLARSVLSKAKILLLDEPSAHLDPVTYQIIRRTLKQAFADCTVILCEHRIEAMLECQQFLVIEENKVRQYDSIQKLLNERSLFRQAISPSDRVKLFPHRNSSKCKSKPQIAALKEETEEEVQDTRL
Quantity: Maximum % activity (with co-corrector)

[
  {
    "Compound": "COc1ccc(C(C)(C)C)cc1CN[C@H]1[C@H](C(C)(C)C)[C@@H](C(=O)O)N(C(=O)C2CC(=O)N(C3CC3)C2)[C@H]1c1ccccc1 (stereo partly drawn) [II-239]",
    "Assayed system": "F508delCFTR (Homo sapiens, UniProt P13569, DEL508-508)",
    "Maximum % activity (with co-corrector)": "+++ (≥350)"
  },
  {
    "Compound": "COc1cc(Cl)ccc1CN[C@H]1[C@H](C(C)(C)C)[C@@H](C(=O)O)N(C(=O)[C@H](OC)c2ccccc2)[C@H]1c1ccccc1 (relative stereo) [II-54]",
    "Assayed system": "F508delCFTR (Homo sapiens, UniProt P13569, DEL508-508)",
    "Maximum % activity (with co-corrector)": "+++ (≥350)"
  },
  {
    "Compound": "COc1ccc(C(C)(C)C)cc1CN[C@H]1[C@H](C(C)(C)C)[C@@H](C(=O)O)N(C(=O)[C@@H]2CCCO2)[C@H]1c1ccccc1Br [Example I-294]",
    "Assayed system": "F508delCFTR (Homo sapiens, UniProt P13569, DEL508-508)",
    "Maximum % activity (with co-corrector)": "+++ (≥350)"
  },
  {
    "Compound": "COc1cccc(S(=O)(=O)N2[C@H](C(=O)O)[C@@H](C(C)(C)C)[C@H](NCc3cc(C4CCC4)cnc3OC)[C@@H]2c2ccccc2C(C)C)n1 [Example I-303]",
    "Assayed system": "F508delCFTR (Homo sapiens, UniProt P13569, DEL508-508)",
    "Maximum % activity (with co-corrector)": "+++ (≥350)"
  },
  {
    "Compound": "CC(C)(C)[C@H]1[C@H](NCc2coc3ccccc23)[C@H](c2ccccc2)N(C(=O)C2CCCCC2)[C@@H]1C(=O)O [II-100]",
    "Assayed system": "F508delCFTR (Homo sapiens, UniProt P13569, DEL508-508)",
    "Maximum % activity (with co-corrector)": "++ (≥150 and <350)"
  }
]

Now for the compound whose Maximum % activity (with co-corrector) we want.
Incoming: Send back F508delCFTR (Homo sapiens, UniProt P13569, DEL508-508) Maximum % activity (with co-corrector) of COC(=O)[C@H](C)Cc1cnc(OC)c(CN[C@H]2[C@H](C(C)(C)C)[C@@H](C(=O)O)N(C(=O)C3CCCCC3)[C@H]2c2ccccc2)c1 [II-159] only.
Outgoing: ++ (≥150 and <350)

Provenance of the data: patent US20180099931A1
